ENDPOINT NAME: glass transition temperature

- *CC(*)C(=O)OCC(F)(F)C(F)(F)C(F)(F)C(F)(F)F (repeat unit): -37.00 °C
- *c1ccc(Cc2cccc(-n3c(=O)c4cc5c(=O)n(*)c(=O)c5cc4c3=O)c2)cc1 (repeat unit): 339.00 °C
- */C=C/c1cc(OCC(CC)CCCC)c(*)cc1-c1ccc(F)c(C(F)(F)F)c1 (repeat unit): 122.00 °C
- *c1ccc2c(c1)Sc1cc(-c3ccc(-c4ccc(*)s4)s3)ccc1N2CCCCCCCCCC (repeat unit): 142.00 °C
- *Oc1ccc(S(=O)(=O)c2ccc(Oc3ccc4c(=O)n5c6cc(Oc7ccc8c(c7)nc7c9ccc(*)c%10cccc(c(=O)n87)c%109)ccc6nc5c5cccc3c45)cc2)cc1 (repeat unit): 374.00 °C
- *c1ccc(-c2cc(CCCCCC)c(-c3ccc(-c4ccc5ccc6ccc(*)nc6c5n4)cc3)cc2CCCCCC)cc1 (repeat unit): 190.00 °C
- *Nc1ccc(Cc2ccc(NC(=O)c3cc(NC(=O)c4ccncc4)cc(C(*)=O)c3)cc2)cc1 (repeat unit): 302.00 °C
- */C=C/C1CC(*)C(C(=O)OCCCCCCOc2ccc(-c3ccc(C#N)cc3)cc2)C1C(=O)OCCCCCCOc1ccc(-c2ccc(C#N)cc2)cc1 (repeat unit): 55.80 °C
- *CC(O)COc1ccc(C(C)(C)c2ccc(OCC(O)COc3ccc(S(=O)(=O)c4ccc(O*)cc4)cc3)cc2)cc1 (repeat unit): 140.00 °C
- *Oc1ccc(CC(NC(=O)Cc2ccc(OC(=O)CCCC(*)=O)cc2)C(=O)OCC)cc1 (repeat unit): 65.00 °C
- *C(=O)OCC(COc1ccc(/N=N/c2ccc(C#N)cc2)cc1)OC(=O)c1ncccc1* (repeat unit): 130.00 °C
- *CC(*)c1cc(Cl)ccc1Cl (repeat unit): 108.00 °C
- *CC(*)C(=O)N(C)C (repeat unit): 114.00 °C
- *c1ccc(Oc2ccc(C(c3ccc(Oc4ccc(N5C(=O)c6ccc(Oc7ccccc7Oc7ccc8c(c7)C(=O)N(*)C8=O)cc6C5=O)cc4C(F)(F)F)cc3)(C(F)(F)F)C(F)(F)F)cc2)c(C(F)(F)F)c1 (repeat unit): 191.00 °C
- *CCCCCCOP(=O)(/N=N/c1ccc(COC(=O)c2cc(C(=O)OCc3ccc(/N=N/P(=O)(O*)OC)cc3)cc(C(C)(C)C)c2)cc1)OC (repeat unit): 62.00 °C

Provenance of the data: the PolyMetriX glass transition set
